Test system: IGROV-1
Assay: Cytotoxic activity against human tumor Igrov-1 cell line
Type: functional, cell-based
Conditions: Homo sapiens, IGROV-1
pIC50: −log10 of the molar value.
Answer N if pIC50 is under 5, and Y if it is 5 or more.

* COc1cccc(-c2cc(O)c3ccc4[nH]ccc4c3n2)c1 | Y
* Oc1ccnc2c1ccc1[nH]ccc12 | N
* Oc1cc(-c2cccs2)nc2c1ccc1[nH]ccc12 | N
* O=[N+]([O-])c1cccc(-c2cc(O)c3ccc4[nH]ccc4c3n2)c1 | N
* Cc1cc(O)c2ccc3[nH]ccc3c2n1 | N

In the following, a different compound is considered.
Evaluate Oc1cc(-c2ccccc2)nc2c1ccc1[nH]ccc12 : pIC50 at minimum 5?
Y
